Numbers sourced from PubChem BioAssay (NCI).

# Test system: OVCAR-4 ovarian
# TEST_SUMMARY: NCI-60 one-dose screen, 48 h (100 = growth as untreated, 0 = no growth, -100 = all killed)
# RECORDED_CONDITIONS: 10 µM unless noted
Compounds without any hit were thinned out: in the full panel of roughly 83,000, 20% have a hit. Activity calls are given as the source filed them. The calls were made as follows: active = growth percent below 10; inactive = the rest.

{"columns": ["SMILES", "growth"],
 "data": [
  ["COc1cc(Cn2c(-c3nonc3N)nc3ccccc32)ccc1C", "62.6% (inactive)"],
  ["CCN(C(=O)c1cc2ccccc2[nH]1)[C@H]1CCC[C@@H](NCc2ccc(OC)cc2)C1", "83.3% (inactive)"],
  ["COc1cc(-c2cc(/C=C3\\CCCCC3=O)[nH]n2)cc(OC)c1OC", "95% (inactive)"],
  ["C=C1C(=O)O[C@H]2[C@H]1CC/C(Cn1cc(-c3ccsc3)nn1)=C\\CC[C@@]1(C)O[C@@H]21", "-46.6% (active)"],
  ["COc1ccccc1CNCCCN1C(=O)c2ccc3c4c(ccc(c24)C1=O)C(=O)N(CCCNCCCCNCCCCN)C3=O", "-33.8% (active)"]
]}

###

# Tested on: NCI-H226 lung
# TEST_SUMMARY: NCI-60 one-dose screen, 48 h (100 = growth as untreated, 0 = no growth, -100 = all killed)
# RECORDED_CONDITIONS: 10 µM unless noted
Compounds without any hit were thinned out: in the full panel of roughly 83,000, 20% have a hit. Active and inactive are the calls of the source. How the source made its calls: active means growth percent below 10; inactive means the rest.
REPORTED_ENDPOINT: growth

{"columns": ["COMPOUND", "SUBJECT_OF_TEST", "REPORTED_ENDPOINT", "RESULT"],
 "data": [
  ["Cc1ccc(Cn2c(-c3cccs3)nc3ccccc32)cc1", "NCI-H226 lung", "growth", "77.3% (inactive)"],
  ["CC(=O)Nc1ccc(S(=O)(=O)N2C(=O)CCC2C(=O)Nc2ccc(Br)cc2)cc1 (stereo not drawn)", "NCI-H226 lung", "growth", "50.2% (inactive)"],
  ["CCN(CC)CCC(=O)c1cccc2ccccc12", "NCI-H226 lung", "growth", "104% (inactive)"],
  ["CC[C@H](C)[C@H]1NC(=O)[C@@H](N[C@](C)(O)[C@@H](N)CC(C)C)[C@@H](C)OC(=O)[C@H](Cc2ccc(OC)cc2)N(C)C(=O)[C@@H]2CCCN2C(=O)[C@H](CC(C)C)NC(=O)[C@@H](C)C(=O)[C@H](C(C)C)OC(=O)C[C@@H]1O", "NCI-H226 lung", "growth", "-11.1% (active)"],
  ["COC1=CC(c2ccc[nH]2)=N/C1=C\\c1[nH]c(C)c(C(=O)CCCCC(=O)NCc2ccccc2)c1C", "NCI-H226 lung", "growth", "28.6% (inactive)"],
  ["COc1cc2c3c(c(=O)oc2cc1OS(=O)(=O)c1ccc(C(F)(F)F)cc1)CCCCC3", "NCI-H226 lung", "growth", "77.8% (inactive)"],
  ["O=S(=O)(NCCNc1cc(-c2cn(-c3ccccc3)nc2-c2ccccc2)ccn1)c1cccc2ccccc12", "NCI-H226 lung", "growth", "48% (inactive)"],
  ["O=C(CNc1c(Cl)cccc1Cl)Nc1ccc(-c2nc3ccccc3s2)cc1", "NCI-H226 lung", "growth", "54.4% (inactive)"]
]}

###

# Test system: SK-MEL-5 melanoma
# TEST_SUMMARY: NCI-60 one-dose screen, 48 h (100 = growth as untreated, 0 = no growth, -100 = all killed)
# RECORDED_CONDITIONS: 10 µM unless noted
About 83,000 compounds went through this panel and 20% of them were active in at least one assay; those are over-represented in the sample as a whole.
The label Satisfied is reserved for growth strictly under 40%; Not satisfied covers values equal to or above it.

{"columns": ["COMPOUND", "SUBJECT_OF_TEST", "CATEGORY_LABEL"],
 "data": [
  ["Nc1c(C(=O)Nc2cccc(C(F)(F)F)c2)sc2nc3c(cc12)CCCCC3", "SK-MEL-5 melanoma", "Satisfied"],
  ["Cc1cccc(-n2c(C)nc3ccc(NC(=O)NCCCl)cc3c2=O)c1", "SK-MEL-5 melanoma", "Not satisfied"],
  ["O=C(N/N=C/c1c(Cl)cccc1Cl)c1ccccc1Nc1ccnc(C(F)(F)F)c1", "SK-MEL-5 melanoma", "Not satisfied"],
  ["COC(=O)CCCCCCN=Cc1c(O)c(O)c(C(C)C)c2cc(C)c(-c3c(C)cc4c(C(C)C)c(O)c(O)c(C=NCCCCCCC(=O)OC)c4c3O)c(O)c12", "SK-MEL-5 melanoma", "Not satisfied"],
  ["Cc1ccc2c(c1)C(C)Cc1c(N(C)C)ncnc1N2C (centres undefined)", "SK-MEL-5 melanoma", "Satisfied"],
  ["CC[C@H](C)[C@@H]1NC(=O)[C@H]([C@@H](C)O)NC(=O)C(Cc2ccccc2)NC(=O)[C@@H]2CCCN2C(=O)C(C(C)C)NC(=O)C(Cc2ccccc2)NC(=O)CNC(=O)[C@@H]2CCCN2C1=O (some centres undefined)", "SK-MEL-5 melanoma", "Not satisfied"],
  ["COc1ccc(S(=O)(=O)NCCNc2nccc(-c3c(-c4ccccc4)nc4sccn34)n2)cc1", "SK-MEL-5 melanoma", "Satisfied"],
  ["O=C(O)c1ccc(-n2cc(CNc3ccc(C(F)(F)F)cc3)c(-c3ccccc3)n2)cc1", "SK-MEL-5 melanoma", "Not satisfied"],
  ["Cc1ccc(S(=O)(=O)OC2COCOC2C(OS(=O)(=O)c2ccc(C)cc2)C2OCOCC2OS(=O)(=O)c2ccc(C)cc2)cc1 (centres undefined)", "SK-MEL-5 melanoma", "Not satisfied"]
]}

###

# System: HCC-2998 colon
# TEST_SUMMARY: NCI-60 one-dose screen, 48 h (100 = growth as untreated, 0 = no growth, -100 = all killed)
# RECORDED_CONDITIONS: 10 µM unless noted
The panel holds about 83,000 compounds, 20% with a hit somewhere; the sample as a whole holds those more often.
Use 90% as the dividing line for growth, with the line itself on the TRUE side and lower values as FALSE.

{"columns": ["COMPOUND", "SUBJECT_OF_TEST", "CATEGORY_LABEL"],
 "data": [
  ["O=C(Nc1ccc(F)c(Cl)c1)c1n[nH]c(=O)c2ccccc12", "HCC-2998 colon", "TRUE"],
  ["CCOC(=O)CC(C#N)(CC(=O)OCC)C(=O)OCC", "HCC-2998 colon", "TRUE"],
  ["CC(=O)c1cc(C(=O)c2ccc3c(c2)Sc2ccccc2N3)c2cc(C)ccn12", "HCC-2998 colon", "FALSE"],
  ["CC(C)C(C(=O)CCN(C)C)c1ccc(Cl)cc1 (stereo unspecified)", "HCC-2998 colon", "TRUE"],
  ["CN(C)C/C=C/C(=O)Nc1cc2c(Nc3cccc(Cl)c3F)ncnc2cc1OCCOC(F)F", "HCC-2998 colon", "FALSE"],
  ["COc1cc(-c2csc(NC(=O)Nc3ccc(Cl)cc3Cl)n2)cc(OC)c1OC", "HCC-2998 colon", "FALSE"],
  ["CNC(C)=O", "HCC-2998 colon", "TRUE"],
  ["COc1ccc(NC(=O)CSc2nc3ccccc3c(=O)n2Cc2cc(OC)c(OC)c(OC)c2)cc1", "HCC-2998 colon", "TRUE"],
  ["CCN1C(=S)N(CC)C2Nn3c(s/c(=C4\\C(=O)N(C)c5ccccc54)c3=O)=NC21 (stereo unspecified)", "HCC-2998 colon", "FALSE"],
  ["NC(=O)NC(=O)/C=C/C(=O)OCCCl", "HCC-2998 colon", "TRUE"],
  ["Cc1cnc(NC(=O)C(Cc2ccccc2)NC(=O)c2ccccc2)s1 (stereo unspecified)", "HCC-2998 colon", "FALSE"],
  ["Cn1c(=O)c2c(nc3n2CCN(CCc2ccc(OCCN4CCOCC4)cc2)C3)n(C)c1=O", "HCC-2998 colon", "TRUE"],
  ["OC1CC2c3ccccc3C1c1ccccc12 (stereo unspecified)", "HCC-2998 colon", "TRUE"],
  ["CC[C@H](C)[C@H]1NC(=O)[C@@H](N[C@](C)(O)[C@@H](N)CC(C)C)[C@@H](C)OC(=O)[C@H](Cc2ccc(OC)cc2)N(C)C(=O)[C@@H]2CCCN2C(=O)[C@H](CC(C)C)NC(=O)[C@@H](C)C(=O)[C@H](C(C)C)OC(=O)C[C@@H]1O", "HCC-2998 colon", "FALSE"],
  ["CC(Cc1nnc(SCC(=O)Nc2ccc(I)cc2)n1N)c1ccccc1 (stereo unspecified)", "HCC-2998 colon", "FALSE"],
  ["COc1cc(Br)c(OC)cc1Br", "HCC-2998 colon", "TRUE"],
  ["COc1ccc(S(=O)(=O)Nc2cc(/C=C\\c3cc(OC)c(OC)c(OC)c3)cc(OC)c2OC)cc1OC", "HCC-2998 colon", "FALSE"],
  ["O=C1NCC(c2cc3ccccc3[nH]c2=O)Nc2ccccc21 (stereo unspecified)", "HCC-2998 colon", "TRUE"],
  ["COc1ccc([N+](=O)[O-])c(/C=C/C(=O)c2ccccn2)c1", "HCC-2998 colon", "TRUE"],
  ["COc1ccc(C2CC(c3cccs3)=NN2c2ccc(S(=O)(=O)NC(=O)Nc3ccc(C)cc3)cc2)cc1 (stereo unspecified)", "HCC-2998 colon", "TRUE"]
]}
